Reference source for all entries: ChEMBL document CHEMBL1938336

Listed here are compounds together with their documented MIC.
System: Staphylococcus aureus
experiment notes: Antibacterial activity against Staphylococcus aureus after 18 hrs by microdilution method
Assay type: organism-based
recorded conditions: in vitro

Example entries begin here.
Nc1c(F)c(NCCNc2ccccn2)c2c3c1c(=O)c(C(=O)O)cn3C1(CCC1)CCN2 : > 140 µM
Nc1c(F)c(NCCNc2ccccn2)c2c3c1c(=O)c(C(=O)O)cn3C1(CCO2)CC1 : 5 µM
CC1COc2c(NCCNc3ccccn3)c(F)c(N)c3c(=O)c(C(=O)O)cn(c23)C12CCC2 (stereo unspecified) : > 34 µM
Nc1c(F)c(NCCNc2ccccn2)c2c3c1c(=O)c(C(=O)O)cn3C1(CCC1)CCO2 : 18 µM
CC1CC2(CCC2)n2cc(C(=O)O)c(=O)c3c(N)c(F)c(NCCNc4ccccn4)c(c32)O1 (stereo unspecified) : > 34 µM

Please find the next compound below.
Give MIC (Staphylococcus aureus) of the following compound: Nc1c(F)c(NCCNc2ccccn2)c2c3c1c(=O)c(C(=O)O)cn3C1(CCCC1)CCO2
> 34 µM

====

tested system: Glycogen synthase kinase-3 beta (Homo sapiens)
experiment notes: Inhibition of GSK3-beta in human HepG2 cells assessed as incorporation of [3H]glucose into glycogen at 30 uM after 3 hrs by liquid scintillation counting relative to CHIR99021
Type: cell-based
Sequence (P49841 whole entry, looked up): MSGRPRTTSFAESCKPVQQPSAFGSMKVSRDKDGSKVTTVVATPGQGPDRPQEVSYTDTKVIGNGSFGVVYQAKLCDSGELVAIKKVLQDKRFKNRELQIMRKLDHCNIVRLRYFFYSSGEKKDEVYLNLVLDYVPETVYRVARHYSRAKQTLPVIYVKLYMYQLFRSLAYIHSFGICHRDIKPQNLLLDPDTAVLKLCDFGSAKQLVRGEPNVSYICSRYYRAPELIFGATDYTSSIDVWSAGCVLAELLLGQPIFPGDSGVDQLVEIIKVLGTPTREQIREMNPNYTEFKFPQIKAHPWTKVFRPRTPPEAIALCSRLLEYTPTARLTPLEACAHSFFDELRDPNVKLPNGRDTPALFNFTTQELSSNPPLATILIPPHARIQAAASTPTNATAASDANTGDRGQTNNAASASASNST
parameter measured: Efficacy (%)

As a guide, the following entries are already answered.
Nc1c(F)c(NCCNc2ccccn2)c2c3c1c(=O)c(C(=O)O)cn3C1(CCC1)CCN2 : 12
CC1CC2(CCC2)n2cc(C(=O)O)c(=O)c3c(N)c(F)c(NCCNc4ccccn4)c(c32)O1 (configuration not stated) : 94
Nc1c(F)c(NCCNc2ccccn2)c2c3c1c(=O)c(C(=O)O)cn3C1(CCCC1)CCO2 : 85
CC1COc2c(NCCNc3ccccn3)c(F)c(N)c3c(=O)c(C(=O)O)cn(c23)C12CCC2 (configuration not stated) : 48

A: Nc1c(F)c(NCCNc2ccccn2)c2c3c1c(=O)c(C(=O)O)cn3C1(CCO2)CC1
B: Cc1cnc(-c2cnc(NCCNc3ccc(C#N)cn3)nc2-c2ccc(Cl)cc2Cl)[nH]1
C: Nc1c(F)c(NCCNc2ccccn2)c2c3c1c(=O)c(C(=O)O)cn3C1(CCC1)CCO2
Which order do these items take when sorted by rising Efficacy? List them. Ranked list of labels, please, in the requested order.
A, C, B
(A: 42%, C: 65%, B: 100%)

====

tested system: Glycogen synthase kinase-3 beta (Homo sapiens)
experiment notes: Inhibition of GSK3-beta in human HepG2 cells assessed as incorporation of [3H]glucose into glycogen after 3 hrs by liquid scintillation counting
Sequence (P49841 whole entry): as the sequence (P49841 whole entry, looked up) above
parameter measured: EC50 (µM)

Examples with their reported EC50 follow.
Nc1c(F)c(NCCNc2ccccn2)c2c3c1c(=O)c(C(=O)O)cn3C1(CCCC1)CCO2 : 13
Nc1c(F)c(NCCNc2ccccn2)c2c3c1c(=O)c(C(=O)O)cn3C1(CCC1)CCO2 : 3.2

1: Nc1c(F)c(NCCNc2ccccn2)c2c3c1c(=O)c(C(=O)O)cn3C1(CCCC1)CO2
2: CC1CC2(CCC2)n2cc(C(=O)O)c(=O)c3c(N)c(F)c(NCCNc4ccccn4)c(c32)O1 (stereo not given)
3: CC1COc2c(NCCNc3ccccn3)c(F)c(N)c3c(=O)c(C(=O)O)cn(c23)C12CCC2 (stereo not given)
List by increasing EC50. When ranking, write the labels in the order the request describes.
3, 2, 1
(3: 1.4 µM, 2: 2.1 µM, 1: 20 µM)

====

experiment notes: AUC (0 to 25 hrs) in ICR mouse plasma at 300 mg/kg, po
Assay type: ADME, organism-based
Parameters: time < 25 hr, dose 300 mg/kg, route oral
parameter measured: AUC(0-t) at 25 h (µM·h)

P: Cc1c[nH]c(-c2cnc(NCCNc3ccc(C#N)cn3)nc2-c2ccc(Cl)cc2Cl)n1
Q: CC1COc2c(NCCNc3ccccn3)c(F)c(N)c3c(=O)c(C(=O)O)cn(c23)C12CCC2 (stereo not drawn)
R: Nc1c(F)c(NCCNc2ccccn2)c2c3c1c(=O)c(C(=O)O)cn3C1(CCC1)CCO2
Put the above entries in order of falling AUC(0-t) at 25 h. State the ranking by listing the labels in the requested order.
P, R, Q

====

tested system: UniProt:P49841
experiment notes: Inhibition of human recombinant GSK3-beta after 1 hr by KinaseGlo luciferase assay
parameter measured: IC50 (nM)

These recorded examples may help you get a feel for the data.
CC1CC2(CCC2)n2cc(C(=O)O)c(=O)c3c(N)c(F)c(NCCNc4ccccn4)c(c32)O1 (stereo unspecified) : 250
Nc1c(F)c(NCCNc2ccccn2)c2c3c1c(=O)c(C(=O)O)cn3C1(CCO2)CC1 : 37

I: CC1COc2c(NCCNc3ccccn3)c(F)c(N)c3c(=O)c(C(=O)O)cn(c23)C12CCC2 (stereo unspecified)
II: Nc1c(F)c(NCCNc2ccccn2)c2c3c1c(=O)c(C(=O)O)cn3C1(CCCC1)CCO2
III: Nc1c(F)c(NCCNc2ccccn2)c2c3c1c(=O)c(C(=O)O)cn3C1(CCC1)CCO2
IV: Nc1c(F)c(NCCNc2ccccn2)c2c3c1c(=O)c(C(=O)O)cn3C1(CCC1)CCN2
Rank by IC50 (largest to smallest). I would appreciate it if you listed the labels in the requested order.
IV, II, III, I

====

System: Escherichia coli
experiment notes: Antibacterial activity against Escherichia coli after 18 hrs by microdilution method
Assay type: organism-based
Attribute: MIC

Nc1c(F)c(NCCNc2ccccn2)c2c3c1c(=O)c(C(=O)O)cn3C1(CCC1)CCO2 : > 34 µM
Nc1c(F)c(NCCNc2ccccn2)c2c3c1c(=O)c(C(=O)O)cn3C1(CCO2)CC1 : 9 µM
Nc1c(F)c(NCCNc2ccccn2)c2c3c1c(=O)c(C(=O)O)cn3C1(CCC1)CCN2 : > 140 µM
Nc1c(F)c(NCCNc2ccccn2)c2c3c1c(=O)c(C(=O)O)cn3C1(CCCC1)CCO2 : > 34 µM
CC1CC2(CCC2)n2cc(C(=O)O)c(=O)c3c(N)c(F)c(NCCNc4ccccn4)c(c32)O1 (stereo unspecified) : > 34 µM

# next compound below
API: value(readout= MIC, system= Escherichia coli, query= CC1COc2c(NCCNc3ccccn3)c(F)c(N)c3c(=O)c(C(=O)O)cn(c23)C12CCC2 (stereo unspecified) )
> 34 µM

====

experiment notes: AUC in ICR mouse liver at 300 mg/kg, po
Format: ADME, organism-based
Parameters: dose 300 mg/kg, route oral
parameter measured: AUC (µM·h)

Nc1c(F)c(NCCNc2ccccn2)c2c3c1c(=O)c(C(=O)O)cn3C1(CCC1)CCO2 : 760

P: Cc1c[nH]c(-c2cnc(NCCNc3ccc(C#N)cn3)nc2-c2ccc(Cl)cc2Cl)n1
Q: CC1COc2c(NCCNc3ccccn3)c(F)c(N)c3c(=O)c(C(=O)O)cn(c23)C12CCC2 (stereo not drawn)
Please tell me which of the two, P or Q , has the higher reported AUC value. Return value: the label identifying the chosen record.
P
(P: 820 µM·h, Q: 217 µM·h)
